Source of measurements: the supplement of paper PMC6805474

Test system: Schistosoma mansoni schistosomula (Liberian)
Assay: drug effect (1 - score/DMSO control score) (fraction); higher = more antischistosomal effect, active = 0.5 or more; extreme values may be limits of the assay
Conditions: 24 h; 10 µM
Possible outcomes: T = active, F = inactive

> print(dat)
                                    compound  classification
 1            Nc1c2c(nc3sc4c(c13)CCCC4)CCCC2               T
 2  CC1COC(Cn2cncn2)(c2ccc(Oc3ccc(Cl)cc3)cc2Cl)O1 (stereo not given)               F
 3  CC(C)(C)C(O)C(Oc1ccc(-c2ccccc2)cc1)n1cncn1 (stereo not given)               F
 4  O=C1O[C@@H](COc2ccon2)CN1c1cc(F)c(C2=CCN(Cc3ccccc3)CC2)c(F)c1               F
 5  CC1(C)OB(O)c2ccc(C3=NOC(c4cc(Cl)c(F)c(Cl)c4)(C(F)(F)F)C3)cc21 (stereo not given)               T
 6  Cc1cc(C2=NOC(c3cc(Cl)c(F)c(Cl)c3)(C(F)(F)F)C2)ccc1C(=O)NCc1ccc2c(c1)C(C)(C)OB2O (stereo not given)               F
 7  Cc1cccc(C(=O)Nc2ccnc(N(C)C3CCN(CC(C)C)CC3)c2)c1               F
 8  CO[C@@H]1CN(c2ccc(C#CC3(O)CN4CCC3CC4)c(Cc3ccccc3)n2)C[C@H]1O (stereo not given in full)               F
 9  CO/C=C(/C(=O)OC)c1ccccc1Oc1cc(Oc2ccccc2C#N)ncn1               F
10  CCc1nn(C)c(C(=O)NCc2ccc(Oc3ccc(C)cc3)cc2)c1Cl               F
